The following compounds have recorded IC50 on DGKα (Homo sapiens (Human), UniProt P23743).
Sequence (P23743 whole entry): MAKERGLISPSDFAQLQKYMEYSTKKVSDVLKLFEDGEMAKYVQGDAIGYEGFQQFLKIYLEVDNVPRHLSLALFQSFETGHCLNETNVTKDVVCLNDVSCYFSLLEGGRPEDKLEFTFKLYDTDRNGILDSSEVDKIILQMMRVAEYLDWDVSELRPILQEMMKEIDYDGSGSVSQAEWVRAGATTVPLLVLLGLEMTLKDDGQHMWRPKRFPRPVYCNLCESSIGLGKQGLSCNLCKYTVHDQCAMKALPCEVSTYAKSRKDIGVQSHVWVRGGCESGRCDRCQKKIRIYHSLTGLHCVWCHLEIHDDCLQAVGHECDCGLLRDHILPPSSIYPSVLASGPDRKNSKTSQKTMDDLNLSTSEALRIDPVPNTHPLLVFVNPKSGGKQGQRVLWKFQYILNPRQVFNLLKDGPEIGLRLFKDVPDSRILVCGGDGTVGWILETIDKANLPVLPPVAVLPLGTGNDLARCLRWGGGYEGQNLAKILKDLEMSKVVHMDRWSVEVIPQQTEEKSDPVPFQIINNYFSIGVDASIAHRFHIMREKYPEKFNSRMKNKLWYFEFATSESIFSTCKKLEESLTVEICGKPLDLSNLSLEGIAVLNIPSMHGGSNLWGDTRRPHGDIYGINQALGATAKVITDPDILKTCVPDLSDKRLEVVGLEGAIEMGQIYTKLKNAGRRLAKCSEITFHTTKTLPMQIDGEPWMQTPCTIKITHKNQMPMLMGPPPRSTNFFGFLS
Hi! Could you send only the number? It should be in µM, unit omitted.

Recorded results for 3 compounds are shown here.
Answer with IC50 of CC[C@H]1CN(C(C)c2ccn3nccc3c2)[C@H](CC)CN1c1nc(=O)n(C)c2cn(CC#N)nc12 (single isomer, unassigned) [Compound A159b] measured for DGKα (Homo sapiens (Human), UniProt P23743).
0.04

Enter recorded IC50 with DGKα (Homo sapiens (Human), UniProt P23743) for CC[C@@H]1CN(c2cc(=O)n(C)c3cn(CC#N)nc23)[C@@H](C)CN1C(C)c1ccc2nc(C)sc2c1F (single isomer, unassigned) [Compound A104b] here.
18.4

Specify the recorded IC50 for CC[C@H]1CN(C(C)c2ccc(C3CC3)nc2)[C@H](CC)CN1c1cc(=O)n(C)c2cn(CC#N)nc12 (single isomer, unassigned) [Compound A38b] , system: DGKα (Homo sapiens (Human), UniProt P23743). Also: full length DGKα 7.5 nM.
2.35

Field: next compound
Fetch value of IC50 on DGKα (Homo sapiens (Human), UniProt P23743) for CC[C@H]1CN(C(C)c2ccn3nc(F)cc3n2)[C@H](CC)CN1c1cc(=O)n(C)c2cn(CC#N)nc12 (single isomer, unassigned) [Compound A158a] .
0.33

====

Target: DGKζ (Homo sapiens (Human))
Sequence (Q13574 other isoform, or with tags, fused parts or gaps): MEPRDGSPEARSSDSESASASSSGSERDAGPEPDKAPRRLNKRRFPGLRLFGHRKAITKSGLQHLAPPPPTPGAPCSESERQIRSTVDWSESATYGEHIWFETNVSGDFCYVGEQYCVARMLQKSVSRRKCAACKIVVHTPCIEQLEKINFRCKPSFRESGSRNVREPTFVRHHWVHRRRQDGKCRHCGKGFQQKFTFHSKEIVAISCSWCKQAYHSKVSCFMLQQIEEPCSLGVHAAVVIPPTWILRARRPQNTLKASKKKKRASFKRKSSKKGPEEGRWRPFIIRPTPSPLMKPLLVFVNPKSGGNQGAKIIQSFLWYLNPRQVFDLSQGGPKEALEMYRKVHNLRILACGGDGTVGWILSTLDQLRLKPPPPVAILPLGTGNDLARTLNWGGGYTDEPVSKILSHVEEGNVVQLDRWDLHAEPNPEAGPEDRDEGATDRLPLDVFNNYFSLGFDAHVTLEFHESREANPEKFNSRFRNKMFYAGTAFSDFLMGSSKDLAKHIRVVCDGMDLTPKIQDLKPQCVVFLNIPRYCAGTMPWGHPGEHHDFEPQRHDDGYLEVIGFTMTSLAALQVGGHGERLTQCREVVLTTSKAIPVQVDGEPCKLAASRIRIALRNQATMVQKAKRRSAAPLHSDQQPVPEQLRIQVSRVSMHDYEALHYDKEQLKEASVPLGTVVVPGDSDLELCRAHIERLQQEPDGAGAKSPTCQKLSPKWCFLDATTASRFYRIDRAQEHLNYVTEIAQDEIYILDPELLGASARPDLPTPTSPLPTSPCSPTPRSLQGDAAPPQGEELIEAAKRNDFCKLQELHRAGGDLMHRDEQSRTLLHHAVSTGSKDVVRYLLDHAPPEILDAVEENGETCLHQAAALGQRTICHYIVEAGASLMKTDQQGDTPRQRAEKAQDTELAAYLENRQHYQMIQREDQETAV
readout-label: IC50

Answered cases to consult:
State IC50 on DGKζ (Homo sapiens (Human)). Entry: CC[C@H]1CN(C(C)c2ccc(CN3CCCC3)cc2)[C@H](CC)CN1c1cc(=O)n(C)c2cn(CC#N)nc12 (single isomer, unassigned) [Compound A26a]
4.09 µM

Give IC50 only, for CC[C@@H]1CN(c2cc(=O)n(C)c3cn(CC#N)nc23)[C@@H](C)CN1C(C)c1ccn2nc(C)cc2n1 (single isomer, unassigned) [Compound A172b] , using DGKζ (Homo sapiens (Human)) data.
> 10 µM

System DGKζ (Homo sapiens (Human)). Read-out IC50. Item CC[C@H]1CN(C(C)c2ccc3cnncc3c2)[C@H](CC)CN1c1cc(=O)n(C)c2cn(CC#N)nc12 (single isomer, unassigned) [Compound A186b] . Report value.
> 10 µM

# lookup: DGKζ (Homo sapiens (Human)) IC50, key = CC[C@H]1CN(C(C)c2ccn3nc(C)cc3n2)[C@H](CC)CN1c1nc(=O)n(C)c2cn(CC#N)nc12 (single isomer, unassigned) [Compound A157a]
> 10 µM

Others:
Report IC50 from DGKζ (Homo sapiens (Human)) testing of CC#CCn1cc2c(n1)c(N1C[C@@H](CC)N(C(C)c3ccc4ncsc4c3)C[C@@H]1C)cc(=O)n2C (single isomer, unassigned) [Compound A112b]
> 10 µM

====

pIC50: −log10 of the molar value.
Consider compounds characterized by their pIC50 with DGKζ (Homo sapiens (Human)).

Please review the following examples before continuing.
Please look at this compound and report its pIC50: CC[C@H]1CN(C(C)c2ccc(OC3COC3)c(C)c2)[C@H](CC)CN1c1cc(=O)n(C)c2cn(CC#N)nc12 (single isomer, unassigned) [Compound A21b]
< 5.00

Return value of pIC50 for input CC#CCn1cc2c(n1)c(N1C[C@@H](CC)N(C(C)c3ccc4nc(C)sc4c3F)C[C@@H]1C)cc(=O)n2C (single isomer, unassigned) [Compound A116b] , no commentary.
< 5.00

Fill in pIC50 for record CC[C@H]1CN(C(C)c2ccn3nccc3n2)[C@H](CC)CN1c1nc(=O)n(C)c2cn(CC#N)nc12 (single isomer, unassigned) [Compound A163a]
< 5.00

***
Read the entry CC[C@H]1CN(C(C)c2ccn3nc(F)cc3n2)[C@H](CC)CN1c1cc(=O)n(C)c2cn(CC#N)nc12 (single isomer, unassigned) [Compound A158a] and write its reported pIC50.
< 5.00
